Tested on: E3 ubiquitin-protein ligase TRIM33 (Homo sapiens, UniProt Q9UPN9)
Sequence (Q9UPN9 whole entry): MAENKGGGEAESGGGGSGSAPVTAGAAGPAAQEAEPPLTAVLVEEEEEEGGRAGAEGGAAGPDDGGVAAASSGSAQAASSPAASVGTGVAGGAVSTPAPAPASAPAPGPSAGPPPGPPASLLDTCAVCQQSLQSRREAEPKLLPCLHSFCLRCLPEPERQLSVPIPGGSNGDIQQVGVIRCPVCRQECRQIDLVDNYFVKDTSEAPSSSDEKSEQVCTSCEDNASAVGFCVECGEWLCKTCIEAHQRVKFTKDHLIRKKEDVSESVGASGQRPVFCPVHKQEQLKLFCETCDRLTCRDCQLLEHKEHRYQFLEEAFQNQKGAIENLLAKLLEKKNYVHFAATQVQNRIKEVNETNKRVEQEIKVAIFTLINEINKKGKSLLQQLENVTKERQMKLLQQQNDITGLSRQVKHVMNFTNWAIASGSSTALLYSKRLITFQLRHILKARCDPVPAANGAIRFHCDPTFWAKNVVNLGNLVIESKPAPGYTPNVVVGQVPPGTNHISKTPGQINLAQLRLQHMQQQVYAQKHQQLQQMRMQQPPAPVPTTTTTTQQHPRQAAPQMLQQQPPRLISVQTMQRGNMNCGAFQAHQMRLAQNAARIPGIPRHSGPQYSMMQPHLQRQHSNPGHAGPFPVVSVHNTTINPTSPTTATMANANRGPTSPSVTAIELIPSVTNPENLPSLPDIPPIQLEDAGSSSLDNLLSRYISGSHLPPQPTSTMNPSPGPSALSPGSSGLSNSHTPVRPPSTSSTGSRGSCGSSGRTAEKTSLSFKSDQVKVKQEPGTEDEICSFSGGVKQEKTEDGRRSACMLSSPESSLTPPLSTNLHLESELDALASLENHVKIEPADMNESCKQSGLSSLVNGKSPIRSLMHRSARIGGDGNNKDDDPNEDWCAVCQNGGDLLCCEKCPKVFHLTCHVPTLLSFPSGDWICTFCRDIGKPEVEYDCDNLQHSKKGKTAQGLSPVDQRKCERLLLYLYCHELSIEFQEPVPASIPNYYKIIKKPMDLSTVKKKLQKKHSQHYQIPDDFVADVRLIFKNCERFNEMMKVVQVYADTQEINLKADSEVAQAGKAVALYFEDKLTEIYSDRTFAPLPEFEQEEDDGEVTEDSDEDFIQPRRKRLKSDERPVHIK
Assay remarks: Inhibition of recombinant TRIM33 PHD bromodomain (unknown origin) using biotinylated H3 peptide (H3K9me3K18ac) by AlphaScreen assay
pIC50: −log10 of the molar value.
The entries below are paired with their reported pIC50.
Measurement name: pIC50

• COc1ccc(Nc2c(-c3ccc4nccn4c3)nc3ccc(Br)cn23)cc1 = 4.15
• N#Cc1ccc(CNc2c(-c3ccc4nccn4c3)nc3cnccn23)cc1 = 4.34
• COC(=O)c1ccc2nc(-c3ccc4nccn4c3)c(Nc3ccc(OC)cc3)n2c1 = 4.65
• Cc1nc(-c2nc3ccc(Br)cn3c2NCCN2CCOCC2)c[nH]1 = 3.35
• COc1ccc(Nc2c(-c3ccc4nccn4c3)nc3cnccn23)cc1 = 4.42
• c1ccn2c(NCCN3CCOCC3)c(-c3ccc4nccn4c3)nc2c1 = 3.44
• COC(=O)c1ccc2nc(-c3nc[nH]c3C)c(NCc3ccc(C#N)cc3)n2c1 = 3.95
• CCCOc1ccn2c(C(C)=O)cc(-c3nc4cnccn4c3NCCN3CCOCC3)c2c1 = 3.82
• c1cn2c(NCCN3CCOCC3)c(-c3ccc4nccn4c3)nc2cn1 = 3.59
• O=C1CCCCCCC1 = 6.60
• CCCOc1ccn2c(C(C)=O)cc(-c3nc4ccccn4c3NCCN3CCOCC3)c2c1 = 4.16
• COC(=O)c1ccc2nc(-c3nc[nH]c3C)c(Nc3ccc(OC)cc3)n2c1 = 4.71
• O=C1CCCC1 = 6.63
• CCCOc1ccn2c(C(C)=O)cc(-c3nc4cnccn4c3NC3CCCCC3)c2c1 = 4.10
• COc1ccc(Nc2c(-c3c[nH]c(C)n3)nc3cnccn23)cc1 = 3.81
• COc1ccc(Nc2c(-c3c[nH]c(C)n3)nc3ccccn23)cc1 = 8.50
• O=Cc1cccnc1Br = 5.26
• COc1cc(C=O)ccc1O = 6.49
• COCCNc1c(-c2ccc3nccn3c2)nc2cnccn12 = 3.72
• N#Cc1ccc(CNc2c(-c3ccc4nccn4c3)nc3ccc(Br)cn23)cc1 = 4.32
• CCCOc1ccn2c(C(C)=O)cc(-c3nc4ccccn4c3NCc3ccc(C#N)cc3)c2c1 = 4.33
• Cc1[nH]cnc1-c1nc2cnccn2c1NCCN1CCOCC1 = 4.15
• Cc1[nH]cnc1-c1nc2cnccn2c1NCc1ccc(C#N)cc1 = 3.92

###

Tested on: Transcription intermediary factor 1-alpha (Homo sapiens)
Sequence (O15164 whole entry): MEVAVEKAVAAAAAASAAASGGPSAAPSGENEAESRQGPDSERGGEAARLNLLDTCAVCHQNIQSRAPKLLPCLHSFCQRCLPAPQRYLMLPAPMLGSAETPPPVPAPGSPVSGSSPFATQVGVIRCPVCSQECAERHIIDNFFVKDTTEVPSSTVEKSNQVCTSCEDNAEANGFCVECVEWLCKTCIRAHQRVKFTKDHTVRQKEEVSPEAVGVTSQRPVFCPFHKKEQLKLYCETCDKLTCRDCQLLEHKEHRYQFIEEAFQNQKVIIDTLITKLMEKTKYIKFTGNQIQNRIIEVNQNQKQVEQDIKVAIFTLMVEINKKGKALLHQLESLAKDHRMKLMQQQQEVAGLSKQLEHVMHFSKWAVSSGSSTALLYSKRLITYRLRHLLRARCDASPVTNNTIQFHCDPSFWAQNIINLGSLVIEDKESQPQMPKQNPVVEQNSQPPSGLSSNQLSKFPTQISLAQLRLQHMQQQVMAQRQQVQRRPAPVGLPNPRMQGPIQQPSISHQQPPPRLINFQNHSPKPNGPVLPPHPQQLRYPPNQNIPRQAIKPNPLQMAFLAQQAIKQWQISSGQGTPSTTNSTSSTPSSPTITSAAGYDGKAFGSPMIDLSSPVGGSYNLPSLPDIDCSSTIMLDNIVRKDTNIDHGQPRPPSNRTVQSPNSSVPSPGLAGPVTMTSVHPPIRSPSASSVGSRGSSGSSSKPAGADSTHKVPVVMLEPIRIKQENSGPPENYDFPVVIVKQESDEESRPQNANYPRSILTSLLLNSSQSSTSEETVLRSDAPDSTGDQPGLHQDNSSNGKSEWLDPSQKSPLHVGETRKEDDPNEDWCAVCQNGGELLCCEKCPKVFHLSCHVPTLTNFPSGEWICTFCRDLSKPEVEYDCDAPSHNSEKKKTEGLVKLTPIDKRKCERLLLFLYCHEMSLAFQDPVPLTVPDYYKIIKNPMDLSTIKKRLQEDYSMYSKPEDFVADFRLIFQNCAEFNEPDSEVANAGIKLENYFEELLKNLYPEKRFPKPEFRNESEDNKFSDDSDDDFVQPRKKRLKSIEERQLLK
Assay remarks: Inhibition of recombinant TRIM24 (unknown origin) using biotinylated H3 peptide (H3K9me3K18ac) by AlphaScreen assay
pIC50: −log10 of the molar value.
Measurement name: pIC50

• COC(=O)c1ccc2nc(-c3c[nH]c(C)n3)c(NCCN3CCOCC3)n2c1 = 2.54
• Cc1nc(-c2nc3cnccn3c2NC2CCCCC2)c[nH]1 = 3.73
• CCCOc1ccn2c(C(C)=O)cc(-c3nc4ccc(C(=O)OC)cn4c3NCCOC)c2c1 = 2.54
• CCCOc1ccn2c(C(C)=O)cc(-c3nc4ccc(C(=O)OC)cn4c3Nc3ccc(OC)cc3)c2c1 = 3.45
• CCCOc1ccn2c(C(C)=O)cc(-c3nc4ccccn4c3Nc3ccc(OC)cc3)c2c1 = 3.80
• Cc1nc[nH]c1-c1nc2ccccn2c1NC1CCCCC1 = 5.04
• Cc1[nH]cnc1-c1nc2ccc(Br)cn2c1NCCN1CCOCC1 = 3.93
• CCCOc1ccn2c(C(C)=O)cc(-c3nc4ccccn4c3NCCOC)c2c1 = 3.35
• COCCNc1c(-c2nc[nH]c2C)nc2ccc(Br)cn12 = 3.87
• COC(=O)c1ccc2nc(-c3ccc4nccn4c3)c(NC3CCCCC3)n2c1 = 3.30
